- ASSAYED_SYSTEM: Cytochrome P450 3A4 (Homo sapiens)
- PROTOCOL_NOTES: Cytochrome P450 Family 3 Subfamily A Member 4 (CYP3A4) small molecule antagonists: luciferase reporter qHTS assay (AID 1671201); note: nearly all actives have a fitted effect of over 50% in size; note: potency is the fitted concentration of half-maximal effect
- MEASUREMENT_SETUP: P450-Glo CYP3A4 enzyme, luciferin luminescence, 1 h; series mostly up to 115 µM
Inconclusive results are not listed. Active and inactive are the calls of the source. Calls come from the whole dose curve; as a rule, active = well fitted inhibition curve with a large enough effect in the repeat runs; inconclusive = weak or mixed curves; inactive = no such curve, though single readings can be large or run the other way.
METRIC: Potency

Please review the following examples before continuing.
CC(=O)CCc1ccc2c(c1)OCO2    22.4 µM (active)
Nc1cc2c3c(c1)C(c1ccccc1)=N[C@@H](NC(=O)c1cccnc1)C(=O)N3CC2    11.2 µM (active)
Cc1ccccc1CO[C@@H]1C[C@@]2(C(C)C)CC[C@]1(C)O2    3.99 µM (active)
Clc1cccc(N2CCNCC2)c1    inactive
CC(C(O)c1ccccc1)N(C)C/C=C/c1ccccc1 (stereo unspecified)    inactive

So what's the measured Potency for this one? `C[N+](=O)[O-]`
inactive
